Molecular target: c-Met (Homo sapiens)
Construct: recombinant kinase domain of c-Met
Sequence (P08581 956-1390 limits assumed): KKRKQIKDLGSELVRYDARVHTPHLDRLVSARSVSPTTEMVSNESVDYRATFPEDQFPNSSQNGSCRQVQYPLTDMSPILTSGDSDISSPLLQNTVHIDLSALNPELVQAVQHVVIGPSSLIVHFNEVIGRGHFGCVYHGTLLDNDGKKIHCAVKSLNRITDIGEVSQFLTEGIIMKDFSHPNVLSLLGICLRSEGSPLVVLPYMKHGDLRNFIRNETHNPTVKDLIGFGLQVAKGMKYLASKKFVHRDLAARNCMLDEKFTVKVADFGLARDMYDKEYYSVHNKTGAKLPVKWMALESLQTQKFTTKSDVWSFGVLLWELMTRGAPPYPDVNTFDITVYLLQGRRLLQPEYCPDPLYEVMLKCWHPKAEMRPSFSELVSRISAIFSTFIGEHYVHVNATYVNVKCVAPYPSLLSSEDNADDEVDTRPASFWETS
Experiment: biochemical
Conditions: read-out: IC50 (nM) in c-Met enzyme assay

- molecule: "Cn1cc(-c2cnc3nnn(CC4CNc5ncccc5O4)c3n2)c2ccccc21 (stereo not shown)"
  IC50 / nM: 6.3

###

Target: c-Met (Homo sapiens)
Construct: recombinant kinase domain of c-Met
Assay: HTRF c-Met kinase assay; also radiometric kinase panel (Met activity -2 at […])
Assay type: biochemical
Conditions: read-out: IC50 (nM) in c-Met enzyme assay

- compound: "FC(F)(F)c1cc(-c2cnc3nnn(CC4CNc5ncccc5O4)c3n2)ccc1OCCN1CCOCC1 (stereo not shown)"
  IC50: "9 nM"
